Just for reference, patent US12240844B2 is where these values come from.

ASSAY TARGET: LRRK2 (G2019S) (Homo sapiens, UniProt Q5S007, G2019S)
Sequence (Q5S007 970-2527 G2019S limits assumed): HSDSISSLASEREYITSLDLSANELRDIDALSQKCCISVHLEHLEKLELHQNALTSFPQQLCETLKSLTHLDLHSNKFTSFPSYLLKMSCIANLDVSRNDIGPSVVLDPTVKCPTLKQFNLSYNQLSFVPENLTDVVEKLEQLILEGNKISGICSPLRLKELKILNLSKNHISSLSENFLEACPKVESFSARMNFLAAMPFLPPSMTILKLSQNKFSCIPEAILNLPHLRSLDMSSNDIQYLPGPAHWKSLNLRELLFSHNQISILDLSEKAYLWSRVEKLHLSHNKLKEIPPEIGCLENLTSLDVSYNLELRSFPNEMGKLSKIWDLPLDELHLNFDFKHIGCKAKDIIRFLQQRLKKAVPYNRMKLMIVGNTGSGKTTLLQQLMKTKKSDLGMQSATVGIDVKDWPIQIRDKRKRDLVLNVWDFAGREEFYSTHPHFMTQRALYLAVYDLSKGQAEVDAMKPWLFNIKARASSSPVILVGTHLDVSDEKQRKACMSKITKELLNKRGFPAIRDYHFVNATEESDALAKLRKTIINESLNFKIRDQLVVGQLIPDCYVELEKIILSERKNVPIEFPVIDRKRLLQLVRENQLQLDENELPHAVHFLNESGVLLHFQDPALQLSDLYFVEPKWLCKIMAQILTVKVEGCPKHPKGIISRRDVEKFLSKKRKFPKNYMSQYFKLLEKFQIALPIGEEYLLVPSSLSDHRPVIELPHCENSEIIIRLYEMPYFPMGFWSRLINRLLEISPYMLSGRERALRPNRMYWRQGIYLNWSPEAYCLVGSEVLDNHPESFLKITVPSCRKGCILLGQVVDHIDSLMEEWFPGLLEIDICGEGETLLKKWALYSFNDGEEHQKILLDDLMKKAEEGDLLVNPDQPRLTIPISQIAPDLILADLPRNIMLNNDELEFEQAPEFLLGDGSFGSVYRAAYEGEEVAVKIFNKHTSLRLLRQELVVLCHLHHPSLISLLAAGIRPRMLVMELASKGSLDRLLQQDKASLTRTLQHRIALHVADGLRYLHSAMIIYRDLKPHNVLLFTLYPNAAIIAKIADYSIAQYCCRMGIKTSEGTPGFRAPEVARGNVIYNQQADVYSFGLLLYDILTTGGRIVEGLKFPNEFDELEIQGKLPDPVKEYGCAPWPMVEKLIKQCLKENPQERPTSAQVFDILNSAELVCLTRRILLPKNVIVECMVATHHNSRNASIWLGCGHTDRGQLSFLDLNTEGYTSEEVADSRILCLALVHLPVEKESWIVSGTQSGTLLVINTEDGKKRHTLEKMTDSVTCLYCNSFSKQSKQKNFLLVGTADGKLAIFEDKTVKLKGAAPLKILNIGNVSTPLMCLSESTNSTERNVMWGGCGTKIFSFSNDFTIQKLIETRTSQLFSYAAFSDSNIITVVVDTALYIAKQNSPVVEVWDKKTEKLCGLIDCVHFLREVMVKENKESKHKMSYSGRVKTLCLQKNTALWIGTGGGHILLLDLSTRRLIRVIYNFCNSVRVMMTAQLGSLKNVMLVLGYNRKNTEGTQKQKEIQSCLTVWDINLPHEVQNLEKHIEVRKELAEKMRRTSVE
MEASUREMENT DESCRIPTION: LRRK2 G2019S enzyme inhibition, ADP-Glo kinase assay
pIC50: −log10 of the molar value.
// reported pIC50 per item
ENDPOINT: pIC50

query_smiles=CCNc1cc(Nc2ccc(C(=O)N3CCC4(CC3)CC4)c3c2OCC3)nc2[nH]cc(C(F)(F)F)c12 endpoint=pIC50 assay_result="6.00 to 6.52"
query_smiles=CCNc1cc(Nc2ccc(C(=O)N3CCN(C4COC4)CC3)c3c2OCC3)nc2[nH]cc(C(F)(F)F)c12 endpoint=pIC50 assay_result="> 7.00"
query_smiles=CCNc1cc(Nc2ccc(C(=O)N3CCO[C@H](C)C3)c3c2OCC3)nc2[nH]cc(C(F)(F)F)c12 endpoint=pIC50 assay_result="> 7.00"
query_smiles=CCNc1cc(Nc2ccc(S(=O)(=O)N3CCOCC3)c3c2OCCO3)nc2[nH]cc(C(F)(F)F)c12 endpoint=pIC50 assay_result="6.00 to 6.52"
query_smiles=N#Cc1c[nH]c2nc(Nc3ccc(C(=O)N4CCOCC4)c4c3OCCO4)cc(NC3CC3)c12 endpoint=pIC50 assay_result="> 7.00"
query_smiles=COc1cc(S(=O)(=O)N2CCC(N3C[C@H]4C[C@@H]3CO4)CC2)ccc1Nc1cc(C2CC2)c2c(C(F)(F)F)c[nH]c2n1 endpoint=pIC50 assay_result="6.00 to 6.52"
query_smiles=COc1cc(S(C)(=O)=O)ccc1Nc1cc(NCC(C)C)c2cc[nH]c2n1 endpoint=pIC50 assay_result="6.52 to 7.00"
query_smiles=COCCNc1cc(Nc2ccc(C(=O)N3CCOCC3)c3c2OCCO3)nc2[nH]cc(Cl)c12 endpoint=pIC50 assay_result="> 7.00"
query_smiles=COCCNc1cc(Nc2ccc(S(C)(=O)=O)cc2OC)nc2[nH]cc(C#N)c12 endpoint=pIC50 assay_result="> 7.00"
query_smiles=COc1cc(S(=O)(=O)N2CCOCC2)ccc1Nc1cc(NCC(C)C)c2cc[nH]c2n1 endpoint=pIC50 assay_result="6.00 to 6.52"
query_smiles=CCNc1cc(Nc2ccc(C(=O)N3CCC(N4CCN(C)CC4)CC3)c3c2OCC3)nc2[nH]cc(C(F)(F)F)c12 endpoint=pIC50 assay_result="> 7.00"
query_smiles=CCNc1cc(Nc2ccc(C(=O)N3CCN(CC4CC4)CC3)c3c2OCC3)nc2[nH]cc(C(F)(F)F)c12 endpoint=pIC50 assay_result="> 7.00"
query_smiles=CCCNc1cc(Nc2ccc(C(=O)N3CCOCC3)c3c2OCCO3)nc2[nH]cc(C#N)c12 endpoint=pIC50 assay_result="> 7.00"
query_smiles=CNc1cc(Nc2ccc(S(C)(=O)=O)cc2OC)nc2[nH]cc(Cl)c12 endpoint=pIC50 assay_result="> 7.00"
query_smiles=COc1cc(S(C)(=O)=O)ccc1Nc1cc(NCCS(C)(=O)=O)c2cc[nH]c2n1 endpoint=pIC50 assay_result="6.00 to 6.52"
query_smiles=CCNc1cc(Nc2ccc(C(=O)N3CCN(CCO)CC3)c3c2OCC3)nc2[nH]cc(C(F)(F)F)c12 endpoint=pIC50 assay_result="> 7.00"
